- reported_conditions: in n-propanol, 287.95 K
parameter: solubility (mole fraction)

1. O=C([O-])c1ccccc1.[K+] | 0.000781

###

- reported_conditions: in n-pentanol, 293.25 K
parameter: solubility (mole fraction)

1) O=C([O-])c1ccccc1.[K+] | 0.000693

###

- reported_conditions: in ethanol, 282.95 K
parameter: solubility (mole fraction)

1) O=C([O-])c1ccccc1.[K+] | 0.00133

###

- reported_conditions: in ethanol, 308.25 K
parameter: solubility (mole fraction)

1) O=C([O-])c1ccccc1.[K+] | 0.00192
